experiment: Human HepG2 cell viability assay in 384 well format; assay type: toxicity, cell-based; set-up: dose 125 nL, time 70.5 hour; concentration not given beside the values; conditions: HepG2 cells, read-out: Inhibition
assay.readout: cytotoxicity at 70.5 h (%)
Field format: number, assumed %, no unit text.

Recorded results for 4 molecules are shown here.
CCCS(=O)(=O)CC(=O)Nc1ccsc1 :: 7.39
Cc1nc(CN2CCOC(c3ccc(Cl)cc3)C2)oc1C (centres undefined) :: -7.95
CCN(C)C[C@@H]1CN(S(=O)(=O)c2cccc(C#N)c2)C[C@@H]1CO :: -5.18
NC(=O)c1nc(CN2CCOC(C(F)(F)F)C2)no1 (centres undefined) :: 11.5

Using the record for Cc1ccc(-c2cc(CN3CCc4cncnc4C3)on2)cc1 , report its cytotoxicity at 70.5 h.
-10.9

Next entry: Cn1cc(CN2CCC3(CC2)CN(c2cccnc2)C(=O)CO3)cn1
-5.12

Please do the same for CCNC(=O)CS(=O)(=O)NC1CCC(C)CC1 (centres undefined) as well.
-14.8

Consider next the molecule Cc1ccc(C(=O)N2CCC3(CC2)COCCN(S(C)(=O)=O)C3)cc1C in the same way.
-6.37

Same read-out for COc1cccc(-c2nccc(C3CCCN3C)n2)c1 (centres undefined) ?
26.3
